Target: HDAC3 (Homo sapiens, UniProt O15379)
Construct: purchased Reaction Biology Corporation (assay run by the CRO)
Sequence (O15379 whole entry): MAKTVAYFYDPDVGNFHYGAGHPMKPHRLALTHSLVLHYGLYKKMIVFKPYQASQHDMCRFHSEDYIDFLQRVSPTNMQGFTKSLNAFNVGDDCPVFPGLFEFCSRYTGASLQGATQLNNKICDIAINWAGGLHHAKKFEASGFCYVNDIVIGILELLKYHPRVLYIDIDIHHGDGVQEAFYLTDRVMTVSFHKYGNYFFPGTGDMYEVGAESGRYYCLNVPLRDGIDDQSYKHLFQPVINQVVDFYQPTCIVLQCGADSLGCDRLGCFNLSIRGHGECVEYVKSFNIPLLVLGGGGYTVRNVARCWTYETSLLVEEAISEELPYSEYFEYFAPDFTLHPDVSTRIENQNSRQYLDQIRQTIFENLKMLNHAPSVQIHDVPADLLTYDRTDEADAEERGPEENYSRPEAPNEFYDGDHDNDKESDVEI
Sequence (Q9Y618 395-489 partner limits assumed): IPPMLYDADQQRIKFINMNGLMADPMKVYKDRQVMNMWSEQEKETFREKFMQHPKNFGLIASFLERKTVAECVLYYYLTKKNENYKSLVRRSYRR
Assay: HDAC3 inhibition, full IC50 measurement (Reaction Biology; fluorogenic p53 peptide RHKK(Ac)AMC)
Assay type: biochemical
Settings: Conc. 4.57E-09 M, t1
Peptide text beside a SMILES is read from it.
Recorded HDAC3 activity raw data (signal), one value per entry.
reported.property: HDAC3 activity raw data (signal)

>>> reported_value("NCCCC[C@H]1NC(=O)[C@H](CCC(N)=O)NC(=O)[C@H](CCC(=O)O)NC(=O)[C@@H]2CCCN2C(=O)[C@H](CC(N)=O)NC(=O)[C@H](CCCCCS)NC(=O)CNC(=O)[C@H](Cc2c[nH]c3ccccc23)NC1=O [des1.1.1, SHA-Asn-Pro-Glu-Gln-dLys-Trp-Gly] (HELM PEPTIDE1{E.Q.[dK].W.G.[O=C([C@H](CCCCCS)N[*:1])[*:2]].N.P}$PEPTIDE1,PEPTIDE1,1:R1-8:R2$$$V2.0)")
936051
>>> reported_value("C[C@H](O)[C@H]1NC(=O)[C@H](Cc2c[nH]c3ccccc23)NC(=O)[C@H](CCCCCS)NC(=O)[C@H](CCCCN)NC(=O)[C@@H](CC(=O)O)NC(=O)[C@@H](CCCCN)NC(=O)[C@@H](CO)NC(=O)[C@H](CC(N)=O)NC(=O)[C@H](CC(=O)O)NC1=O [des2.1.0, SHA-Trp-dThr-Asp-Asn-dSer-dLys-dAsp-Lys] (HELM PEPTIDE1{D.N.[dS].[dK].[dD].K.[O=C([C@H](CCCCCS)N[*:1])[*:2]].W.[dT]}$PEPTIDE1,PEPTIDE1,1:R1-9:R2$$$V2.0)")
1235523
>>> reported_value("NCCCC[C@@H]1NC(=O)[C@@H]2CCCN2C(=O)[C@H](CC(N)=O)NC(=O)[C@H](CCCCCS)NC(=O)CNC(=O)[C@H](Cc2c[nH]c3ccccc23)NC(=O)[C@@H](CCCCN)NC(=O)[C@H](CCC(N)=O)NC1=O [des1.1.0, SHA-Asn-Pro-Lys-Gln-dLys-Trp-Gly] (HELM PEPTIDE1{G.[O=C([C@H](CCCCCS)N[*:1])[*:2]].N.P.K.Q.[dK].W}$PEPTIDE1,PEPTIDE1,1:R1-8:R2$$$V2.0)")
1249527
>>> reported_value("CCCC[C@H]1NC(=O)[C@H](Cc2ccccc2)NC(=O)[C@H](CCCCCS)NC(=O)[C@@H](CCCNC(=N)N)NC(=O)[C@H](CC(=O)O)NC(=O)[C@@H](CO)NC(=O)[C@@H](C)NC(=O)[C@H](CCCCN)NC1=O [des4.3.1, SHA-Phe-dNle-Lys-dAla-dSer-Asp-dArg] (HELM PEPTIDE1{D.[dR].[O=C([C@H](CCCCCS)N[*:1])[*:2]].F.[CCCC[C@@H](N[*:1])C(=O)[*:2]].K.[dA].[dS]}$PEPTIDE1,PEPTIDE1,1:R1-8:R2$$$V2.0)")
1278679
>>> reported_value("N=C(N)NCCC[C@H]1NC(=O)[C@@H]2CCCN2C(=O)[C@H](CO)NC(=O)[C@@H](Cc2c[nH]cn2)NC(=O)[C@H](CCCCCS)NC(=O)[C@H](CCCCN)NC(=O)[C@H](Cc2ccc(O)cc2)NC(=O)[C@H]2CCCN2C(=O)[C@@H](CCC(N)=O)NC1=O [des3.1.0, SHA-dHis-Ser-Pro-dArg-dGln-dPro-Tyr-Lys] (HELM PEPTIDE1{K.[O=C([C@H](CCCCCS)N[*:1])[*:2]].[dH].S.P.[dR].[dQ].[dP].Y}$PEPTIDE1,PEPTIDE1,1:R1-9:R2$$$V2.0)")
999086
>>> reported_value("CC(C)C[C@H]1NC(=O)[C@H](Cc2c[nH]c3ccccc23)NC(=O)[C@H](CCCCCS)NC(=O)[C@@H](Cc2ccc(O)cc2)NC(=O)[C@@H](C(C)C)NC(=O)[C@H](Cc2c[nH]cn2)NC(=O)CNC(=O)CNC(=O)[C@@H](CO)NC1=O [des2.2.0, SHA-Trp-dLeu-dSer-Gly-Gly-His-dVal-dTyr] (HELM PEPTIDE1{G.G.H.[dV].[dY].[O=C([C@H](CCCCCS)N[*:1])[*:2]].W.[dL].[dS]}$PEPTIDE1,PEPTIDE1,1:R1-9:R2$$$V2.0)")
1032533
